Biological target: mouse serum albumin (MSA) (Mus musculus, UniProt P07724)
Sequence (P07724 25-608): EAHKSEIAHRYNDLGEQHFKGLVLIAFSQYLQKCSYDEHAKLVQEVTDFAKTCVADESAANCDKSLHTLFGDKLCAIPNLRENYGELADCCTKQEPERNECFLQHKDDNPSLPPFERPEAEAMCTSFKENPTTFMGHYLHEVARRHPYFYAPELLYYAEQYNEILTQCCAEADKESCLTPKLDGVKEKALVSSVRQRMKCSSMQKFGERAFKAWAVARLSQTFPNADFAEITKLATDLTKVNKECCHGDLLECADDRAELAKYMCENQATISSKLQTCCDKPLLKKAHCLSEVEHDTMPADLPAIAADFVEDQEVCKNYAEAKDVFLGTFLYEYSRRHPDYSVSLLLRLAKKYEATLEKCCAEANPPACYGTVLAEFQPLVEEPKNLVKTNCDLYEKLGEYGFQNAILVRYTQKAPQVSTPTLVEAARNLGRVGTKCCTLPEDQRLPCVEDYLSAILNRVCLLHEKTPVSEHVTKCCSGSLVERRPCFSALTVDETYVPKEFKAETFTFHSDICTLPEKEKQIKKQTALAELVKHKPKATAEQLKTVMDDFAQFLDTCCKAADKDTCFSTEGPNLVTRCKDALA
Test: Presaturation equilibrium dialysis, fraction unbound in mouse serum albumin solution
Conditions: mouse, isolated protein, Fraction Unbound (fu) and Coefficient of Variance (CV), MSA, 4% mouse serum albumin in PBS, 5 μM PFAS, value (CV)
metric: fraction unbound at 18 h, 5 µM

Given O=C(O)C(F)(F)C(F)(F)C(F)(F)C(F)(F)C(F)(F)C(F)(F)F , state its recorded fraction unbound at 18 h, 5 µM.
0.0118

---

Target: rat serum albumin (RSA) (Rattus norvegicus)
Sequence (P02770 25-608): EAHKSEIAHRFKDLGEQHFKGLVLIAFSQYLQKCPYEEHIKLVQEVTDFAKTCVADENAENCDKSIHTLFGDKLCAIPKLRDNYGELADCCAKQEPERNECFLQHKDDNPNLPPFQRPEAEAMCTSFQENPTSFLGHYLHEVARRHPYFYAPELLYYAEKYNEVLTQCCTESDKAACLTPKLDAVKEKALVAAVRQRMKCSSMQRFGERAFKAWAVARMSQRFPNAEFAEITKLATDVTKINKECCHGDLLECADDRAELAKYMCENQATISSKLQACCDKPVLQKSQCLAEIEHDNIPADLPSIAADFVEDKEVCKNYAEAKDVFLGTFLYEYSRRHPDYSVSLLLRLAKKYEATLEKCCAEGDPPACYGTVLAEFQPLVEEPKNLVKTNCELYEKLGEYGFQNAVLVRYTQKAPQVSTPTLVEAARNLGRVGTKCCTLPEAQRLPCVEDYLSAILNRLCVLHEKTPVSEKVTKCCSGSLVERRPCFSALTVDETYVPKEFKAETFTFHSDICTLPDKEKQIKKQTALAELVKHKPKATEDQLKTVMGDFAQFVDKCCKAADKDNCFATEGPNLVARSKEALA
Assay: Presaturation equilibrium dialysis, fraction unbound in rat serum albumin solution
Settings: 4% rat serum albumin in PBS, 5 μM PFAS, value (CV)
Measured Fraction Unbound (fu) and Coefficient of Variance (CV), RSA of individual entries

Below, each entry is followed by its recorded Fraction Unbound (fu) and Coefficient of Variance (CV), RSA result.
compound	assayed.system	endpoint.value
O=C(O)C(F)(F)C(F)(F)C(F)(F)F	rat serum albumin (RSA) (Rattus norvegicus)	0.216(3%)
O=C(O)C(F)(F)C(F)(F)C(F)(F)C(F)(F)C(F)(F)C(F)(F)C(F)(F)C(F)(F)F	rat serum albumin (RSA) (Rattus norvegicus)	0.00271(2%)
O=S(=O)(O)C(F)(F)C(F)(F)C(F)(F)C(F)(F)C(F)(F)C(F)(F)C(F)(F)C(F)(F)F	rat serum albumin (RSA) (Rattus norvegicus)	0.000852(25%)

Reported Fraction Unbound (fu) and Coefficient of Variance (CV), RSA for O=S(=O)(O)C(F)(F)C(F)(F)C(F)(F)C(F)(F)F : what is it?
0.0208(8%)

Which Fraction Unbound (fu) and Coefficient of Variance (CV), RSA reading was recorded for the compound O=C(O)C(F)(F)C(F)(F)C(F)(F)C(F)(F)C(F)(F)C(F)(F)C(F)(F)C(F)(F)C(F)(F)F ?
0.000608(19%)

I would be grateful if you could share the reported Fraction Unbound (fu) and Coefficient of Variance (CV), RSA for O=C(O)C(F)(F)C(F)(F)C(F)(F)C(F)(F)C(F)(F)C(F)(F)C(F)(F)C(F)(F)C(F)(F)C(F)(F)F .
0.000178(28%)
